All figures here come from patent US11149031B2.

- Tested Target: His6-ERα298-554 Y537S mutant (ERα ligand-binding domain) (Homo sapiens (Human), UniProt P03372, Y537S)
- Sequence (P03372 298-554 Y537S): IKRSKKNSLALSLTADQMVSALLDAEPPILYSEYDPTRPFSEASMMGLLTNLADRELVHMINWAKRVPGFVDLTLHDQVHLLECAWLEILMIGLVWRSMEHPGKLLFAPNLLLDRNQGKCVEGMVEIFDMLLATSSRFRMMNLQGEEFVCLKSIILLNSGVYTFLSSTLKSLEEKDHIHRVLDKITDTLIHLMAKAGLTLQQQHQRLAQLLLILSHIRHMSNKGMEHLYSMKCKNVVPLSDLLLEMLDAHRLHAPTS
- Protocol Description: Test A: biochemical antagonist activity, LanthaScreen TR-FRET ERα coactivator assay, Y537S mutant
- Cond: asterisk (*): protocol using 10 nM estradiol; read-out: Antagonism Y537S IC50
Assign labels as follows, please: Y for IC50 below 200 nM; N for IC50 equal to or exceeding 200 nM.

INSERT INTO measurements (molecule, class_label) VALUES
  ('O=C1COc2ccc(C3=C(c4ccc(O[C@H]5CCN(CCCF)C5)cc4)c4ccc(O)cc4SC3)cc2N1 [Example 38]', 'N'),
  ('CC1(C)Cc2cc(C3=C(c4ccc(O[C@H]5CCN(CCCF)C5)cc4)c4ccc(O)cc4SCC3)ccc2O1 [Example 201]', 'Y'),
  ('CCOc1cc(C2=C(c3ccc(O[C@H]4CCN(CCCF)C4)cc3)c3ccc(O)cc3SCC2)ccc1F [Example 195]', 'Y'),
  ('[2H]C([2H])([2H])Oc1ccc(C2=C(c3ccc(O[C@H]4CCN(CCCF)C4)cc3)c3ccc(O)cc3SCC2)c(F)c1 [Example 209]', 'Y'),
  ('Oc1ccc2c(c1)SCC(c1ccc(C(F)F)cc1F)=C2c1ccc(O[C@H]2CCN(CCCF)C2)cc1 [Example 62]', 'N'),
  ('CC(C)(C)c1ccc(C2=C(c3ccc(O[C@H]4CCN(CCCF)C4)cc3)c3cc(O)ccc3CC2)cc1 [Example 11]', 'N'),
  ('Oc1ccc2c(c1)OCCC(c1ccc(OC3CC3)cc1)=C2c1ccc(O[C@H]2CCN(CCCF)C2)cc1 [Example 149]', 'N');
